Test system: MYB
Test: 3' UTR reporter interaction score (median-centred robust z-score of log2 firefly/Renilla activity); higher = less repression of the 3' UTR reporter
Settings: HEK293T; 48 h
Tick yes if 3' UTR reporter interaction score is 0.5 or greater. Tick no if 3' UTR reporter interaction score is less than 0.5.

[[record]]
sequence_data = "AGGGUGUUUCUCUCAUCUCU"
assigned_category = "yes"

[[record]]
sequence_data = "UUCACCACCUUCUCCACCCAGC"
assigned_category = "yes"

[[record]]
sequence_data = "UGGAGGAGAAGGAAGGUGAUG"
assigned_category = "yes"

[[record]]
sequence_data = "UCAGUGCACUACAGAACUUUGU"
assigned_category = "no"

[[record]]
sequence_data = "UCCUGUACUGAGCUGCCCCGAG"
assigned_category = "no"

[[record]]
sequence_data = "UACCCUGUAGAACCGAAUUUGU"
assigned_category = "no"

[[record]]
sequence_data = "UGAGGUAGUAGUUUGUGCUGU"
assigned_category = "yes"

[[record]]
sequence_data = "UCCCUGUCCUCCAGGAGCUCA"
assigned_category = "no"

[[record]]
sequence_data = "AACAUUCAUUGCUGUCGGUGGG"
assigned_category = "no"

[[record]]
sequence_data = "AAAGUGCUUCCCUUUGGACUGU"
assigned_category = "no"

[[record]]
sequence_data = "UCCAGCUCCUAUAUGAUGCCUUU"
assigned_category = "yes"

[[record]]
sequence_data = "UAAAGCUAGAUAACCGAAAGU"
assigned_category = "yes"

[[record]]
sequence_data = "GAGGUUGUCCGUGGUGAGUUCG"
assigned_category = "no"

[[record]]
sequence_data = "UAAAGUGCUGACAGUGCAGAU"
assigned_category = "no"

[[record]]
sequence_data = "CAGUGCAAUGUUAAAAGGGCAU"
assigned_category = "no"

[[record]]
sequence_data = "UGAGGUAGUAGUUUGUACAGU"
assigned_category = "no"

[[record]]
sequence_data = "GGCUGGCUCGCGAUGUCUGUUU"
assigned_category = "no"

[[record]]
sequence_data = "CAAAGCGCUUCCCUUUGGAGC"
assigned_category = "no"

[[record]]
sequence_data = "AGGGGGAAAGUUCUAUAGUCCU"
assigned_category = "yes"

[[record]]
sequence_data = "UAGCAGCACAUCAUGGUUUACA"
assigned_category = "no"

[[record]]
sequence_data = "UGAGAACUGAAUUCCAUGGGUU"
assigned_category = "yes"

[[record]]
sequence_data = "UGUCAGUUUGUCAAAUACCCC"
assigned_category = "yes"

[[record]]
sequence_data = "UCCGUCUCAGUUACUUUAUAGCC"
assigned_category = "no"

[[record]]
sequence_data = "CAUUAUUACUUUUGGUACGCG"
assigned_category = "no"

[[record]]
sequence_data = "ACUGCCCUAAGUGCUCCUUCU"
assigned_category = "no"

[[record]]
sequence_data = "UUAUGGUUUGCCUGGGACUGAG"
assigned_category = "yes"

[[record]]
sequence_data = "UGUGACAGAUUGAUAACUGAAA"
assigned_category = "no"

[[record]]
sequence_data = "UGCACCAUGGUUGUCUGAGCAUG"
assigned_category = "no"

[[record]]
sequence_data = "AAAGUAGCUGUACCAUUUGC"
assigned_category = "yes"

[[record]]
sequence_data = "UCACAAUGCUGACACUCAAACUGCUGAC"
assigned_category = "no"

[[record]]
sequence_data = "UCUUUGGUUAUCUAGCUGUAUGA"
assigned_category = "no"

[[record]]
sequence_data = "AUGACCUAUGAAUUGACAGAC"
assigned_category = "yes"

[[record]]
sequence_data = "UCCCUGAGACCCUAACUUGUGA"
assigned_category = "no"

[[record]]
sequence_data = "CCCAGAUAAUGGCACUCUCAA"
assigned_category = "no"

[[record]]
sequence_data = "GUCCCUCUCCAAAUGUGUCUUG"
assigned_category = "yes"

[[record]]
sequence_data = "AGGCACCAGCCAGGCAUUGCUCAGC"
assigned_category = "no"

[[record]]
sequence_data = "UCUGGCUCCGUGUCUUCACUCC"
assigned_category = "no"

[[record]]
sequence_data = "AUGCACCUGGGCAAGGAUUCUG"
assigned_category = "no"

[[record]]
sequence_data = "UGGACGGAGAACUGAUAAGGGU"
assigned_category = "yes"

[[record]]
sequence_data = "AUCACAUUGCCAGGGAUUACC"
assigned_category = "no"

[[record]]
sequence_data = "AAAGUGCAUCCUUUUAGAGUGUUAC"
assigned_category = "no"

[[record]]
sequence_data = "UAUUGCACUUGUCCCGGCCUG"
assigned_category = "no"

[[record]]
sequence_data = "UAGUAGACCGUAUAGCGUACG"
assigned_category = "yes"

[[record]]
sequence_data = "CCUCUAGAUGGAAGCACUGUCU"
assigned_category = "yes"

[[record]]
sequence_data = "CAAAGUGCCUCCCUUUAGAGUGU"
assigned_category = "no"

[[record]]
sequence_data = "UAUGUGCCUUUGGACUACAUCG"
assigned_category = "yes"

[[record]]
sequence_data = "UCUCACACAGAAAUCGCACCCGUC"
assigned_category = "no"

[[record]]
sequence_data = "UAAUACUGCCGGGUAAUGAUGG"
assigned_category = "no"

[[record]]
sequence_data = "UUAAGACUUGCAGUGAUGUUUAA"
assigned_category = "no"

[[record]]
sequence_data = "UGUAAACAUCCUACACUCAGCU"
assigned_category = "yes"

[[record]]
sequence_data = "ACUCCAUUUGUUUUGAUGAUGGA"
assigned_category = "no"

[[record]]
sequence_data = "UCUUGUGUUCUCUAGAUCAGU"
assigned_category = "no"

[[record]]
sequence_data = "UGGGCGUAUCUGUAUGCUA"
assigned_category = "no"

[[record]]
sequence_data = "CUCUAGAGGGAAGCACUUUCU"
assigned_category = "yes"

[[record]]
sequence_data = "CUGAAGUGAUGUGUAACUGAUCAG"
assigned_category = "no"

[[record]]
sequence_data = "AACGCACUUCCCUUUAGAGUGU"
assigned_category = "no"

[[record]]
sequence_data = "ACAGCAGGCACAGACAGGCAG"
assigned_category = "no"

[[record]]
sequence_data = "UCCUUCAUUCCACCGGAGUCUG"
assigned_category = "yes"

[[record]]
sequence_data = "AUUACAUGGCCAAUCUC"
assigned_category = "no"

[[record]]
sequence_data = "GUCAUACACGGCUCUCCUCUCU"
assigned_category = "yes"

[[record]]
sequence_data = "UUUGGCAAUGGUAGAACUCACA"
assigned_category = "no"

[[record]]
sequence_data = "AUCGUGCAUCCCUUUAGAGUGUU"
assigned_category = "no"

[[record]]
sequence_data = "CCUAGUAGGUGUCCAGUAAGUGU"
assigned_category = "no"

[[record]]
sequence_data = "AAUAAUACAUGGUUGAUCUUU"
assigned_category = "no"


Reference source for all entries: the supplement of paper PMC5844555
